Counter-ions that a name gives are not always drawn.
measurement name: melting point

# melting point (compound: CCCCCC(=O)Nc1cccc2c1C1(COc3cc4c(cc31)OCCO4)C(=O)N2C (centres unmarked) ) is 151 to 153 °C

# melting point (compound: O=C1N(Cc2noc(C(F)(F)F)n2)c2ccccc2C12COc1cc3c(cc12)OCCO3 (centres unmarked) ) is 159 to 160 °C

# melting point (compound: CN1C(=O)C2(COc3cc4c(cc32)OCCO4)c2c(C(=O)NC3CCCCC3)cccc21 (centres unmarked) ) is 139 to 140 °C

# melting point (compound: CN1C(=O)C2(COc3cc4c(cc32)OCCO4)c2c(-c3csc(N)n3)cccc21 (centres unmarked) ) is 233 to 234 °C (dec.)

# melting point (compound: O=C1N(Cc2ccccn2)c2ccccc2C12COc1cc3c(cc12)OCCCO3 (centres unmarked) ) is 122 to 123 °C

# melting point (compound: COc1ccc(Oc2cccc3c2C2(COc4cc5c(cc42)OCCO5)C(=O)N3C)cc1 (centres unmarked) ) is 55 to 58 °C

# melting point (compound: CN1C(=O)C2(COc3cc4c(cc32)OCCO4)c2c(-c3ccoc3)cccc21 (centres unmarked) ) is 178 to 180 °C

# melting point (compound: COc1ncc(CN2C(=O)C3(COc4cc5c(cc43)OCO5)c3ccccc32)s1 (centres unmarked) ) is 164 to 166 °C

# melting point (compound: CN1C(=O)C2(COc3cc4c(cc32)OCCO4)c2c(NC(=O)c3ccccc3)cccc21 (centres unmarked) ) is 192 to 194 °C

# melting point (compound: O=C1N(C[C@@H]2COCCO2)c2ccccc2C12COc1cc3c(cc12)OCCCO3 (some centres unmarked) ) is 144 to 147 °C

# melting point (compound: CN1CCN(CN2C(=O)C3(COc4cc5c(cc43)OCO5)c3ccccc32)CC1 (centres unmarked) (as salt: chloride) ) is > 175 °C (dec.)

# melting point (compound: Nc1nc(C(F)(F)F)c(CN2C(=O)C3(COc4cc5c(cc43)OCO5)c3ccccc32)s1 (centres unmarked) ) is 165 to 167 °C

# melting point (compound: O=C1N(Cc2ccc3c(c2)OCCO3)c2ccccc2C12COc1cc3c(cc12)OCCO3 (centres unmarked) ) is 120 to 123 °C

# melting point (compound: CN1C(=O)C2(COc3cc4c(cc32)OCO4)c2c(C3CCOC3)cccc21 (centres unmarked) ) is 182 to 184 °C

# melting point (compound: COc1cc2c(cc1F)C1(CO2)C(=O)N(C[C@H]2CCCO2)c2ccccc21 (some centres unmarked) ) is 106 to 116 °C

# melting point (compound: Cn1cc(CN2C(=O)C3(COc4cc5c(cc43)OCCO5)c3ccccc32)ccc1=O (centres unmarked) ) is 205 to 207 °C

# melting point (compound: COc1cc2c(cc1F)C1(CO2)C(=O)Nc2ccccc21 (centres unmarked) ) is 222 to 225 °C

* * *

measurement name: melting point

# melting point (compound: O=C(NC1CCC1)c1ccc(CN2C(=O)C3(COc4cc5c(cc43)CCO5)c3ccccc32)cc1 (centres unmarked) [Example 12.42] ) is > 250 °C

# melting point (compound: CCCNC(=O)CN1C(=O)C2(COc3cc4c(cc32)CCO4)c2ccccc21 (centres unmarked) [Example 12.51] ) is 207 to 209 °C

# melting point (compound: Cc1ccc(NC(=O)c2cccc(CN3C(=O)C4(COc5cc6c(cc54)CCO6)c4ccccc43)c2)c(C)c1 (centres unmarked) [Example 12.4] ) is 234 to 235 °C

# melting point (compound: CCOC(=O)CN1C(=O)C2(COc3cc4c(cc32)OCCO4)c2ccccc21 (centres unmarked) [Example 9.44] ) is 58 to 59 °C

# melting point (compound: O=C1N(Cn2nc3ccccc3n2)c2ccccc2C12COc1cc3c(cc12)CCO3 (centres unmarked) [Example 9.13] ) is 102 to 105 °C

# melting point (compound: COc1ccc(CN2C(=O)C3(COc4cc(F)c(C#N)cc43)c3ccccc32)cc1 (centres unmarked) [Example 2.40] ) is 142 to 143 °C

# melting point (compound: Cc1noc2cc3c(cc12)C1(CO3)C(=O)N(Cc2ncccc2C(F)(F)F)c2ccccc21 (centres unmarked) [Example 9.42] ) is 221 to 222 °C

# melting point (compound: O=C1N(Cc2ccccn2)c2cccc(-c3cnc4ccccc4c3)c2C12COc1cc3c(cc12)OCCO3 (centres unmarked) [Example 4.102] ) is 228 to 230 °C
